The following molecules are shown together with reported Percent Effect values.
# System: Mycobacterium tuberculosis
# MEASUREMENT_PROTOCOL: Cornell M. t heat shock assay; further: in the data most compounds retested in dose-response had high values
# Format: functional, organism-based
# Parameters: dose or concentration left out as unconfirmed
The campaign covered roughly 69,000 compounds. About 950 (1.4%) showed an effect of 50% or more. Many of the other results were omitted from the sample, so strong results are more common in it than they were.
MEASURED_PROPERTY: Percent Effect (%)

> print(dat)
                                    molecule  result
 1  Cc1ccoc1C(=O)N1CC[C@@H]2CN(C3CCOCC3)CCO[C@@H]2C1.O=C(O)C(F)(F)F   6.269
 2            CCCS(=O)(=O)NCc1ncc(C)c(OC)c1C   51.82
 3  CCc1ccc(-c2cc(C(F)(F)F)nc(N3CCC(N)CC3)n2)cc1     103
 4                     CCCNCc1ncc(C)c(OC)c1C  -10.29
 5      CCn1ccnc1CN1CCN(CCC(=O)NC2CCCCC2)CC1   24.85
 6  Cc1ccc(C(=O)O)cc1-c1cccc(C(C)N(C)C)c1 (stereo unspecified)  -8.231
 7  CCn1ncc(-c2cc(C(F)(F)F)nc(N3CCC(N)CC3)n2)c1C   23.29
 8  CC(c1cccc(-c2ncc(C#N)c(N)n2)c1)N(C)C (stereo unspecified)  -10.92
 9                  COc1c(C)cnc(CNCC(C)C)c1C  -4.994
10  Cn1ccc(C(=O)N2CCC[C@]3(C[C@@H](OCc4ccccn4)CO3)C2)n1.O=C(O)C(F)(F)F  -3.608
11  O=C(Cc1c[nH]c2ccccc12)N1CCN(C(=O)c2ccoc2)CC1   3.224

----------
The following compounds are shown together with reported Percent Effect values.
# System: Mycobacterium tuberculosis
# MEASUREMENT_PROTOCOL: Cornell M. t heat shock assay; further: in the data most compounds retested in dose-response had high values
# Assay type: functional, organism-based
# Design: dose or concentration left out as unconfirmed
In all, about 69,000 compounds went through this assay and about 950 (1.4%) showed an effect of 50% or more. The list comes from a sample in which strong results are over-represented; it also holds close analogues and randomly drawn compounds.
MEASURED_PROPERTY: Percent Effect (%)

> print(dat)
                                    compound  measured.property   result
 1  Cl.N#Cc1ccc(NC(=O)C2CSCN2)cc1 (stereo unspecified)     Percent Effect    75.04
 2  COc1cc(C(=O)NS(=O)(=O)c2cccc(C#N)c2)cc(OC)c1Br     Percent Effect   -8.929
 3  CNc1ncc(-c2ccc(NC(=O)[C@@H]3CCCCN3)cc2)cn1     Percent Effect   -9.316
 4  CCN1CCC(N2CCC(C(=O)N(C)C)CC2)CC1.O=C(O)C(F)(F)F.O=C(O)C(F)(F)F     Percent Effect    2.155
 5        COc1cc(C(=O)Nc2nc(C)no2)cc(OC)c1Br     Percent Effect    104.3
 6  COc1cc(C(=O)NS(=O)(=O)c2cc(Cl)sc2Cl)ccc1OC(F)F     Percent Effect   -14.59
 7      COc1cc(C(=O)Nc2nc(C)no2)ccc1OC1CCCC1     Percent Effect   -1.479
 8  COc1cc(C(=O)NCc2ccc3c(c2)CCCN3C)cc(OC)c1Br     Percent Effect  -0.1722
 9  O=C(Nc1ccc(F)cc1)C1CCc2ccccc2N1 (stereo unspecified)     Percent Effect    1.641
10  Nc1ncc(-c2ccc(NC(=O)[C@@H]3CCCCN3)cc2)cn1     Percent Effect   -9.095
11             COc1cc(C(=O)Nc2cn[nH]c2)ccc1C     Percent Effect   -19.45
